Attribution: patent US20240123070A1

# measured target: KRAS G13D antigen (G13D-RT6, SEQ ID NO: 20) loaded on Lovo-DPA0301:DPB0501 cells (human)
# protocol text: cell-based or functional assay
endpoint name: TCR Mut RLU/WT RLU
Output should be the measured figure followed by the unit it is expressed in.

Prompt line: TCR Mut RLU/WT RLU for B8.2.4 TCR mutant β98P-H (TCR, V domains shown) V domain 1: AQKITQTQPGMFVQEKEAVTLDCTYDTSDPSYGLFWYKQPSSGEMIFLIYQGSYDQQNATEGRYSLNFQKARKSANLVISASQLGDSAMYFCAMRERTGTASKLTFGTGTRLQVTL V domain 2: DVKVTQSSRYLVKRTGEKVFLECVQDMDHENMFWYRQDPGLGLRLIYFSYDVKMKEKGDIPEGYSVSREKKERFSLILESASTNQTSMYLCASSQTVHPQHFGDGTRLSILE ?
Response line: 0.6 ratio

Prompt line: TCR Mut RLU/WT RLU for B8.2.4 TCR mutant β97V-P (TCR, V domains shown) V domain 1: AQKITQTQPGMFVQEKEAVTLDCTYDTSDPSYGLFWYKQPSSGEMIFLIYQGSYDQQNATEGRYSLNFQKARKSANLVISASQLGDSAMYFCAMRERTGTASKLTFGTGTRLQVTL V domain 2: DVKVTQSSRYLVKRTGEKVFLECVQDMDHENMFWYRQDPGLGLRLIYFSYDVKMKEKGDIPEGYSVSREKKERFSLILESASTNQTSMYLCASSQTPPPQHFGDGTRLSILE ?
Response line: 0.32 ratio

Prompt line: TCR Mut RLU/WT RLU for B8.2.4 TCR mutant β97V-C (TCR, V domains shown) V domain 1: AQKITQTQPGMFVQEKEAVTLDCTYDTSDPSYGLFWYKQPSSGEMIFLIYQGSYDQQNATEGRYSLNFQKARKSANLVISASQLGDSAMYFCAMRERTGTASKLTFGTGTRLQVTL V domain 2: DVKVTQSSRYLVKRTGEKVFLECVQDMDHENMFWYRQDPGLGLRLIYFSYDVKMKEKGDIPEGYSVSREKKERFSLILESASTNQTSMYLCASSQTCPPQHFGDGTRLSILE ?
Response line: 0.37 ratio
